Reported pIC50 by item:
Target: Histone deacetylase 1 (Homo sapiens)
Sequence (Q13547 whole entry): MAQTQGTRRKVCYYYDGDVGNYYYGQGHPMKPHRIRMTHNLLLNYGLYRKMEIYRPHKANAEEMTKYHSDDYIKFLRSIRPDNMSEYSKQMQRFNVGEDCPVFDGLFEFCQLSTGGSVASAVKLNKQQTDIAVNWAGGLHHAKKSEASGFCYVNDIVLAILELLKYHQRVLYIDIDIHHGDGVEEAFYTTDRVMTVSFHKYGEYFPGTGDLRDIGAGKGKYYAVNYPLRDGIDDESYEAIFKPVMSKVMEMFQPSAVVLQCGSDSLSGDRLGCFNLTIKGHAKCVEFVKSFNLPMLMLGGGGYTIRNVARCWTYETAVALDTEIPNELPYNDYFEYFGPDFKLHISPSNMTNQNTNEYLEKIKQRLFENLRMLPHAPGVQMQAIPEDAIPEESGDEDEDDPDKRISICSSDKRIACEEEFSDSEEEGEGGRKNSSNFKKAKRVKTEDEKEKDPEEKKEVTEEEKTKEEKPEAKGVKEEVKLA
Assay: Inhibition of human recombinant HDAC1 expressed in HEK293 cells
pIC50: −log10 of the molar value.

Solved cases (3 shown):
Inquiry: Look up pIC50 for this compound: Nc1ccccc1NC(=O)CCc1ccc(-c2ccc3ncnc(Nc4ccc(OCc5cccc(F)c5)c(Cl)c4)c3c2)cc1
Reply text: < 4.49

Inquiry: Look up pIC50 for this compound: Nc1ccccc1NC(=O)/C=C/c1ccc(-c2ccc3ncnc(Nc4ccc(OCc5cccc(F)c5)c(Cl)c4)c3c2)o1
Reply text: < 4.00

Inquiry: Look up pIC50 for this compound: O=C(/C=C/c1cccc(-c2ccc3ncnc(Nc4ccc(OCc5cccc(F)c5)c(Cl)c4)c3c2)c1)NO
Reply text: 7.46

Further cases:
Inquiry: Look up pIC50 for this compound: O=C(/C=C/c1ccc(-c2ccc3ncnc(Nc4ccc(OCc5cccc(F)c5)c(Cl)c4)c3c2)o1)NO
Reply text: 6.21

Inquiry: Look up pIC50 for this compound: Nc1ccccc1NC(=O)/C=C/c1cccc(-c2ccc3ncnc(Nc4ccc(OCc5cccc(F)c5)c(Cl)c4)c3c2)c1
Reply text: < 4.00

Inquiry: Look up pIC50 for this compound: O=C(/C=C/c1ccc(-c2ccc3ncnc(Nc4ccc(OCc5cccc(F)c5)c(Cl)c4)c3c2)cc1)NO
Reply text: 6.19

Inquiry: Look up pIC50 for this compound: O=C(NO)c1ccc(-c2ccc3ncnc(Nc4ccc(OCc5cccc(F)c5)c(Cl)c4)c3c2)o1
Reply text: < 4.30

Inquiry: Look up pIC50 for this compound: Nc1ccccc1NC(=O)c1ccc(-c2ccc3ncnc(Nc4ccc(OCc5cccc(F)c5)c(Cl)c4)c3c2)o1
Reply text: < 4.30

Inquiry: Look up pIC50 for this compound: Nc1ccccc1NC(=O)c1ccc(-c2ccc3ncnc(Nc4ccc(OCc5cccc(F)c5)c(Cl)c4)c3c2)s1
Reply text: < 4.30

Inquiry: Look up pIC50 for this compound: Nc1ccccc1NC(=O)/C=C/c1ccc(-c2ccc3ncnc(Nc4ccc(OCc5cccc(F)c5)c(Cl)c4)c3c2)cc1
Reply text: < 4.00

Inquiry: Look up pIC50 for this compound: O=C(NO)c1ccc(-c2ccc3ncnc(Nc4ccc(OCc5cccc(F)c5)c(Cl)c4)c3c2)s1
Reply text: 6.03

* * *

Target: Protein deacetylase HDAC6 (Homo sapiens, UniProt Q9UBN7)
Sequence (Q9UBN7 whole entry): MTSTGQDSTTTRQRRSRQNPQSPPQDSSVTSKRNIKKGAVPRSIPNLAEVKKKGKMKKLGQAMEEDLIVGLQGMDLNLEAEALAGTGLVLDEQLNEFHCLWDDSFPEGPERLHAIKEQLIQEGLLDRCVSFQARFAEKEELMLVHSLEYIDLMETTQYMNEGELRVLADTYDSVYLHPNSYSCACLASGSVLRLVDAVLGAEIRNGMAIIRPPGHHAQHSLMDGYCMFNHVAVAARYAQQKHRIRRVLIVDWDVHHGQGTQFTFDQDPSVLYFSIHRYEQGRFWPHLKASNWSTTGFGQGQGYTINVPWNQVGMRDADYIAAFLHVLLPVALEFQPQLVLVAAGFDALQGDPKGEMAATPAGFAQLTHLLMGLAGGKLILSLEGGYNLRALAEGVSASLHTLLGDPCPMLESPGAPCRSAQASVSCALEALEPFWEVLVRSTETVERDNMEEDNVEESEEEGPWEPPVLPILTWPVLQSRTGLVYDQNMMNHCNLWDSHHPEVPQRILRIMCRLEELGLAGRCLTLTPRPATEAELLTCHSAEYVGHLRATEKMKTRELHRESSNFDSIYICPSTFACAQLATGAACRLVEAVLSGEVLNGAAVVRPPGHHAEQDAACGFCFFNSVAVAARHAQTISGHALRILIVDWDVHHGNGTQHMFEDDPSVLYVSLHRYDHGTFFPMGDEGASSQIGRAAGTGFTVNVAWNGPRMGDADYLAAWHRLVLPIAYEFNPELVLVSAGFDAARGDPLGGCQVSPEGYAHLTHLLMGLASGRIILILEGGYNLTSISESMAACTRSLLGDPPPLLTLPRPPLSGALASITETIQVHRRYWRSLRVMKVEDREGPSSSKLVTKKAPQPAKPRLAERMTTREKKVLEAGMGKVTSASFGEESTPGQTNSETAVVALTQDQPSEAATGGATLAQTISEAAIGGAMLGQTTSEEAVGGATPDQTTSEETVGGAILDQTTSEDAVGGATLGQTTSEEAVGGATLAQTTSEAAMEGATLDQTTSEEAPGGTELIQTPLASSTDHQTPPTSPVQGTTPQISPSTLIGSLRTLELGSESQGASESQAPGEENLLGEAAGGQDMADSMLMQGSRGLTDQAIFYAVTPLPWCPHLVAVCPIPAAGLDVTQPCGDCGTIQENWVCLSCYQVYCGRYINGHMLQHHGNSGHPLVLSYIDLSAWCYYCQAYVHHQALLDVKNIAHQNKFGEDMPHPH
Assay: Inhibition of human recombinant HDAC6 expressed in HEK293 cells
property: IC50

Inquiry: Look up IC50 for this molecule: CS(=O)(=O)CCNCc1ccc(-c2ccc3ncnc(Nc4ccc(OCc5cccc(F)c5)c(Cl)c4)c3c2)o1
Reply text: > 10000 nM

Inquiry: Look up IC50 for this molecule: Nc1ccccc1NC(=O)c1ccc(-c2ccc3ncnc(Nc4ccc(OCc5cccc(F)c5)c(Cl)c4)c3c2)o1
Reply text: > 10000 nM

Inquiry: Look up IC50 for this molecule: Nc1ccccc1NC(=O)CCc1ccc(-c2ccc3ncnc(Nc4ccc(OCc5cccc(F)c5)c(Cl)c4)c3c2)cc1
Reply text: > 32000 nM

Inquiry: Look up IC50 for this molecule: O=C(/C=C/c1ccc(-c2ccc3ncnc(Nc4ccc(OCc5cccc(F)c5)c(Cl)c4)c3c2)cc1)NO
Reply text: 230 nM

Inquiry: Look up IC50 for this molecule: Nc1ccccc1NC(=O)/C=C/c1ccc(-c2ccc3ncnc(Nc4ccc(OCc5cccc(F)c5)c(Cl)c4)c3c2)o1
Reply text: > 32000 nM

Inquiry: Look up IC50 for this molecule: O=C(/C=C/c1ccc(-c2ccc3ncnc(Nc4ccc(OCc5cccc(F)c5)c(Cl)c4)c3c2)o1)NO
Reply text: 230 nM

Inquiry: Look up IC50 for this molecule: Nc1ccccc1NC(=O)/C=C/c1ccc(-c2ccc3ncnc(Nc4ccc(OCc5cccc(F)c5)c(Cl)c4)c3c2)cc1
Reply text: > 32000 nM

Inquiry: Look up IC50 for this molecule: O=C(NO)c1ccc(-c2ccc3ncnc(Nc4ccc(OCc5cccc(F)c5)c(Cl)c4)c3c2)s1
Reply text: 50 nM

Further cases:
Inquiry: Look up IC50 for this molecule: O=C(/C=C/c1cccc(-c2ccc3ncnc(Nc4ccc(OCc5cccc(F)c5)c(Cl)c4)c3c2)c1)NO
Reply text: 86 nM

Inquiry: Look up IC50 for this molecule: Nc1ccccc1NC(=O)c1ccc(-c2ccc3ncnc(Nc4ccc(OCc5cccc(F)c5)c(Cl)c4)c3c2)s1
Reply text: > 10000 nM

Inquiry: Look up IC50 for this molecule: Nc1ccccc1NC(=O)/C=C/c1cccc(-c2ccc3ncnc(Nc4ccc(OCc5cccc(F)c5)c(Cl)c4)c3c2)c1
Reply text: > 32000 nM

* * *

Experiment: Inhibition of PKA by flash plate based radioactive enzyme assay
property: IC50

Solved cases (6 shown):
Inquiry: Look up IC50 for this compound: O=C(/C=C/c1ccc(-c2ccc3ncnc(Nc4ccc(OCc5cccc(F)c5)c(Cl)c4)c3c2)s1)NO
Reply text: 35 µM

Inquiry: Look up IC50 for this compound: Nc1ccccc1NC(=O)c1ccc(-c2ccc3ncnc(Nc4ccc(OCc5cccc(F)c5)c(Cl)c4)c3c2)s1
Reply text: > 100 µM

Inquiry: Look up IC50 for this compound: Nc1ccccc1NC(=O)/C=C/c1ccc(-c2ccc3ncnc(Nc4ccc(OCc5cccc(F)c5)c(Cl)c4)c3c2)o1
Reply text: > 100 µM

Inquiry: Look up IC50 for this compound: Nc1ccccc1NC(=O)CCc1ccc(-c2ccc3ncnc(Nc4ccc(OCc5cccc(F)c5)c(Cl)c4)c3c2)cc1
Reply text: > 100 µM

Inquiry: Look up IC50 for this compound: O=C(NO)c1ccc(-c2ccc3ncnc(Nc4ccc(OCc5cccc(F)c5)c(Cl)c4)c3c2)o1
Reply text: 85 µM

Inquiry: Look up IC50 for this compound: Nc1ccccc1NC(=O)/C=C/c1cccc(-c2ccc3ncnc(Nc4ccc(OCc5cccc(F)c5)c(Cl)c4)c3c2)c1
Reply text: > 100 µM

Attention now turns to another entry.
Inquiry: Look up IC50 for this compound: O=C(/C=C/c1cccc(-c2ccc3ncnc(Nc4ccc(OCc5cccc(F)c5)c(Cl)c4)c3c2)c1)NO
Reply text: > 100 µM

* * *

Target: Histone deacetylase
Test: Inhibition of HDAC in human HeLa cell nuclear extracts
Format: cell-based
Reported IC50 by item:

Solved cases (3 shown):
Inquiry: Look up IC50 for this molecule: Nc1ccccc1NC(=O)c1ccc(-c2ccc3ncnc(Nc4ccc(OCc5cccc(F)c5)c(Cl)c4)c3c2)o1
Reply text: > 100 µM

Inquiry: Look up IC50 for this molecule: O=C(NO)c1ccc(-c2ccc3ncnc(Nc4ccc(OCc5cccc(F)c5)c(Cl)c4)c3c2)s1
Reply text: 0.43 µM

Inquiry: Look up IC50 for this molecule: Nc1ccccc1NC(=O)/C=C/c1cccc(-c2ccc3ncnc(Nc4ccc(OCc5cccc(F)c5)c(Cl)c4)c3c2)c1
Reply text: > 32 µM

Attention now turns to another entry.
Inquiry: Look up IC50 for this molecule: Nc1ccccc1NC(=O)c1ccc(-c2ccc3ncnc(Nc4ccc(OCc5cccc(F)c5)c(Cl)c4)c3c2)s1
Reply text: > 10 µM

* * *

Biological target: Histone deacetylase
Assay: Inhibition of HDAC in human HeLa cell nuclear extracts
Type: cell-based
property: IC50

Solved cases (2 shown):
Inquiry: # value lookup — system Histone deacetylase, readout IC50, item Nc1ccccc1NC(=O)CCc1ccc(-c2ccc3ncnc(Nc4ccc(OCc5cccc(F)c5)c(Cl)c4)c3c2)cc1
Reply text: > 32 µM

Inquiry: # value lookup — system Histone deacetylase, readout IC50, item O=C(/C=C/c1ccc(-c2ccc3ncnc(Nc4ccc(OCc5cccc(F)c5)c(Cl)c4)c3c2)cc1)NO
Reply text: > 32 µM

Further cases:
Inquiry: # value lookup — system Histone deacetylase, readout IC50, item O=C(/C=C/c1cccc(-c2ccc3ncnc(Nc4ccc(OCc5cccc(F)c5)c(Cl)c4)c3c2)c1)NO
Reply text: 0.047 µM

Inquiry: # value lookup — system Histone deacetylase, readout IC50, item Nc1ccccc1NC(=O)/C=C/c1ccc(-c2ccc3ncnc(Nc4ccc(OCc5cccc(F)c5)c(Cl)c4)c3c2)o1
Reply text: > 32 µM

Entry source: ChEMBL document CHEMBL1629443
